target: μ-opioid receptor (Homo sapiens (Human), UniProt P35372); assay: μ-opioid receptor [35S]GTPγS functional assay, U-2 OS cells (Table 5); type: biochemical; settings: μ GTP
value_type: pEC50
Units for pEC50: none; it is -log10 of a concentration expressed in mol/L.

molecule	value_type	measured
O=C(NCc1ccc(O)cc1)[C@H]1C[C@]23CCN(CC4CC4)[C@H](Cc4ccc(O)cc42)[C@]3(O)C1	pEC50	8.84
O=C(NCCc1ccccc1)[C@H]1C[C@]23CCN(CC4CC4)[C@H](Cc4ccc(O)cc42)[C@]3(O)C1	pEC50	9.89

### Prompt Dear colleague, I am looking for the recorded pEC50 of the following molecule: O=C(NCc1ccc(F)cc1)[C@@H]1C[C@]23CCN(CC4CC4)[C@H](Cc4ccc(O)cc42)[C@]3(O)C1
### Response 8.51

### Prompt Same thing, different molecule: O=C(NCc1ccc(Cl)cc1Cl)[C@H]1C[C@]23CCN(CC4CC4)[C@H](Cc4ccc(O)cc42)[C@]3(O)C1
### Response 9.85

### Prompt Same thing, different molecule: NC(=O)CNC(=O)[C@@H]1C[C@]23CCN(CC4CC4)[C@H](Cc4ccc(O)cc42)[C@]3(O)C1
### Response 8.16

### Prompt Same thing, different molecule: COc1ccc2c(c1)C13CCN(CC4CC4)[C@H](C2)[C@]1(O)C[C@@H](N)C3 (stereo in doubt)
### Response 6.49

### Prompt Same thing, different molecule: COC(=O)[C@@H]1C[C@]23CCN(CC4CC4)[C@H](Cc4ccc(O)cc42)[C@]3(O)C1
### Response 8.91

### Prompt Same thing, different molecule: O=C(NCc1cc(F)cc(F)c1)[C@@H]1C[C@]23CCN(CC4CC4)[C@H](Cc4ccc(O)cc42)[C@]3(O)C1
### Response 8.43

### Prompt Same thing, different molecule: O=C(NCc1ccc(Cl)cc1Cl)[C@@H]1C[C@]23CCN(CC4CC4)[C@H](Cc4ccc(O)cc42)[C@]3(O)C1
### Response 8.43

### Prompt Same thing, different molecule: COc1ccc2c(c1)[C@]13CCN(CC4CC4)[C@H](C2)[C@]1(O)C[C@H](C#N)C3
### Response 6.64
